What follows is a collection of Ki values obtained with Human immunodeficiency virus type 1 protease (Human immunodeficiency virus 1).

The examples below pair each entry with its known result.
O=C1N(Cc2ccc(O)cc2)[C@H](Cc2ccccc2)[C@H](O)CN(Cc2ccccc2)N1Cc1ccc(O)cc1 ... 0.07 nM
O=C1N(Cc2ccc(CO)cc2)[C@H](Cc2ccccc2)[C@H](O)CN(Cc2ccccc2)N1Cc1ccc(CO)cc1 ... 0.22 nM
COc1cc(CN2C(=O)N(CC3CC3)N(Cc3ccccc3)C[C@@H](O)[C@H]2Cc2ccccc2)ccc1O ... 0.062 nM

Here is the next item to consider.
Prompt: Find Ki (Human immunodeficiency virus type 1 protease (Human immunodeficiency virus 1)) for the entry O=C1N(Cc2ccccc2)[C@H](Cc2ccccc2)[C@H](O)CN(Cc2ccccc2)N1Cc1ccccc1
Response: 2 nM
